Entries and their Stability values follow.
test: Chemical stability of the compound assessed as specific activity per ug at 30 uM after 30 mins in presence of purified cathepsin A; type: physicochemical; details: 0.5 h
Report only the number, with the unit pmol/min understood.

Sample records with Stability:
INSERT INTO measurements (compound, uom, reported) VALUES
  ('COC(=O)[C@H](C)NP(=O)(OC[C@H]1O[C@@H](n2ccc3c(-c4ccco4)ncnc32)[C@H](O)[C@@H]1O)Oc1ccccc1 (some centres undefined)', 'pmol/min', 1249),
  ('COC(=O)[C@H](C)NP(=O)(OC[C@H]1O[C@@H](n2ccc3c(-c4ccsc4)ncnc32)[C@H](O)[C@@H]1O)Oc1ccccc1 (some centres undefined)', 'pmol/min', 1496),
  ('C[C@H](NP(=O)(OC[C@H]1O[C@@H](n2ccc3c(-c4ccco4)ncnc32)[C@H](O)[C@@H]1O)Oc1ccccc1)C(=O)OCc1ccccc1 (some centres undefined)', 'pmol/min', 14727);

Let us examine a further case.
Recall and state the measured Stability for CCOC(=O)[C@H](C)NP(=O)(OC[C@H]1O[C@@H](n2ccc3c(-c4ccco4)ncnc32)[C@H](O)[C@@H]1O)Oc1ccccc1 (some centres undefined) .
11989

###

test system: HL-60; test: Cytotoxicity against human HL60 cells after 5 days by SRB assay; type: functional; details: HL-60, 120 h
// reported GI50 per item

Find the measured GI50 of CCOC(=O)[C@H](C)NP(=O)(OC[C@H]1O[C@@H](n2ccc3c(-c4cccs4)ncnc32)[C@H](O)[C@@H]1O)Oc1ccccc1 (stereo partly drawn) and report it.
> 10 µM

Read off the recorded GI50 for COC(=O)[C@H](C)NP(=O)(OC[C@H]1O[C@@H](n2ccc3c(-c4ccco4)ncnc32)[C@H](O)[C@@H]1O)Oc1ccccc1 (stereo partly drawn)
3.31 µM

Fill in GI50 for record OC[C@H]1O[C@@H](n2ccc3c(-c4ccoc4)ncnc32)[C@H](O)[C@@H]1O
1.5 µM

Give GI50 for OC[C@H]1O[C@@H](n2ccc3c(-c4ccco4)ncnc32)[C@H](O)[C@@H]1O
0.81 µM

Tell me GI50 reported for COC(=O)[C@H](C)NP(=O)(OC[C@H]1O[C@@H](n2ccc3c(-c4ccoc4)ncnc32)[C@H](O)[C@@H]1O)Oc1ccccc1 (stereo partly drawn)
> 10 µM

Return reported GI50. Input molecule: C[C@H](NP(=O)(OC[C@H]1O[C@@H](n2ccc3c(-c4ccco4)ncnc32)[C@H](O)[C@@H]1O)Oc1ccccc1)C(=O)OCc1ccccc1 (stereo partly drawn)
2.19 µM

Answer with the recorded GI50 of C[C@H](NP(=O)(OC[C@H]1O[C@@H](n2ccc3c(-c4ccccc4)ncnc32)[C@H](O)[C@@H]1O)Oc1ccccc1)C(=O)OCc1ccccc1 (stereo partly drawn) only.
5.65 µM

For CCOC(=O)[C@H](C)NP(=O)(OC[C@H]1O[C@@H](n2ccc3c(-c4ccco4)ncnc32)[C@H](O)[C@@H]1O)Oc1ccccc1 (stereo partly drawn) , write its GI50.
4.86 µM

###

experiment: Permeability from apical to basolateral side at 10 uM after 60 to 120 mins by HPLC analysis; assay type: ADME; conditions: not told
Result type: Papp A→B at 10 µM (×10⁻⁶ cm/s)
The reply should contain only the number, in ×10⁻⁶ cm/s.

Recorded Papp A→B at 10 µM, per entry:
INSERT INTO assay_data (compound, reported) VALUES
  ('OC[C@H]1O[C@@H](n2ccc3c(-c4cccs4)ncnc32)[C@H](O)[C@@H]1O', 34.1),
  ('COC(=O)[C@H](C)NP(=O)(OC[C@H]1O[C@@H](n2ccc3c(-c4cccs4)ncnc32)[C@H](O)[C@@H]1O)Oc1ccccc1 (some centres undefined)', 35.1),
  ('CCOC(=O)[C@H](C)NP(=O)(OC[C@H]1O[C@@H](n2ccc3c(-c4cccs4)ncnc32)[C@H](O)[C@@H]1O)Oc1ccccc1 (some centres undefined)', 33.8);

Supply recorded Papp A→B at 10 µM for C[C@H](NP(=O)(OC[C@H]1O[C@@H](n2ccc3c(-c4cccs4)ncnc32)[C@H](O)[C@@H]1O)Oc1ccccc1)C(=O)OCc1ccccc1 (some centres undefined) here.
29.9

###

system: HepG2; assay: Cytotoxicity against human HepG2 cells after 3 days by XTT assay; format: functional, cell-based; settings: HepG2, 72 h
Result type: IC50

Example molecules with recorded IC50:
INSERT INTO results (molecule, reported) VALUES
  ('CCOC(=O)[C@H](C)NP(=O)(OC[C@H]1O[C@@H](n2ccc3c(-c4ccoc4)ncnc32)[C@H](O)[C@@H]1O)Oc1ccccc1 (stereo partly drawn)', '2.96 µM'),
  ('C[C@H](NP(=O)(OC[C@H]1O[C@@H](n2ccc3c(-c4ccccc4)ncnc32)[C@H](O)[C@@H]1O)Oc1ccccc1)C(=O)OCc1ccccc1 (stereo partly drawn)', '> 10 µM');

Consider the molecule CCOC(=O)[C@H](C)NP(=O)(OC[C@H]1O[C@@H](n2ccc3c(-c4ccsc4)ncnc32)[C@H](O)[C@@H]1O)Oc1ccccc1 (stereo partly drawn) . State its measured IC50.
> 10 µM

###

tested on: CCRF-CEM; assay: Cytotoxicity against human CCRF-CEM cells after 3 days by XTT assay; format: functional, cell-based; settings: 72 h
Reported values of pIC50 for individual entries
Note on units: pIC50 is unitless, being -log10 of a concentration expressed in mol/L.

INSERT INTO measurements (compound, reported) VALUES
  ('OC[C@H]1O[C@@H](n2ccc3c(-c4ccccc4)ncnc32)[C@H](O)[C@@H]1O', 6.00);

Note: attention shifts to another entry.
Provide only the value of recorded pIC50 for COC(=O)[C@H](C)NP(=O)(OC[C@H]1O[C@@H](n2ccc3c(-c4ccco4)ncnc32)[C@H](O)[C@@H]1O)Oc1ccccc1 (some centres undefined)
5.46

###

test: Cytotoxicity against human Hs578 cells after 5 days by SRB assay; format: functional; conditions: Hs578, 120 h
In this section, each of the compounds is paired with its reported GI50.
Entry rule: numbers only, all in µM.

INSERT INTO assay_data (compound, reported) VALUES
  ('COC(=O)[C@H](C)NP(=O)(OC[C@H]1O[C@@H](n2ccc3c(-c4cccs4)ncnc32)[C@H](O)[C@@H]1O)Oc1ccccc1 (some centres undefined)', 6.59);

Next up:
Annotate the compound OC[C@H]1O[C@@H](n2ccc3c(-c4ccccc4)ncnc32)[C@H](O)[C@@H]1O with its measured GI50.
3.1

###

This listing pairs molecules with measured IC50.
system: HepG2; experiment: Cytotoxicity against human HepG2 cells after 3 days by XTT assay; format: functional, cell-based; conditions: HepG2, 72 h
Write the value in µM as a bare number.

Reference set (4 entries):
INSERT INTO measurements (molecule, reported) VALUES
  ('COC(=O)[C@H](C)NP(=O)(OC[C@H]1O[C@@H](n2ccc3c(-c4cccs4)ncnc32)[C@H](O)[C@@H]1O)Oc1ccccc1 (some centres undefined)', 1.41),
  ('CCOC(=O)[C@H](C)NP(=O)(OC[C@H]1O[C@@H](n2ccc3c(-c4cccs4)ncnc32)[C@H](O)[C@@H]1O)Oc1ccccc1 (some centres undefined)', 1.53),
  ('OC[C@H]1O[C@@H](n2ccc3c(-c4ccsc4)ncnc32)[C@H](O)[C@@H]1O', 3.22),
  ('C[C@H](NP(=O)(OC[C@H]1O[C@@H](n2ccc3c(-c4ccoc4)ncnc32)[C@H](O)[C@@H]1O)Oc1ccccc1)C(=O)OCc1ccccc1 (some centres undefined)', 2.01);

Determine its reported IC50: OC[C@H]1O[C@@H](n2ccc3c(-c4cccs4)ncnc32)[C@H](O)[C@@H]1O
1.19

Using known records, supply IC50 for CCOC(=O)[C@H](C)NP(=O)(OC[C@H]1O[C@@H](n2ccc3c(-c4ccco4)ncnc32)[C@H](O)[C@@H]1O)Oc1ccccc1 (some centres undefined)
1.42

Annotate the molecule COC(=O)[C@H](C)NP(=O)(OC[C@H]1O[C@@H](n2ccc3c(-c4ccco4)ncnc32)[C@H](O)[C@@H]1O)Oc1ccccc1 (some centres undefined) with its measured IC50.
1.2

Using known records, supply IC50 for COC(=O)[C@H](C)NP(=O)(OC[C@H]1O[C@@H](n2ccc3c(-c4ccoc4)ncnc32)[C@H](O)[C@@H]1O)Oc1ccccc1 (some centres undefined)
3.61

Determine from records and report IC50 for C[C@H](NP(=O)(OC[C@H]1O[C@@H](n2ccc3c(-c4ccsc4)ncnc32)[C@H](O)[C@@H]1O)Oc1ccccc1)C(=O)OCc1ccccc1 (some centres undefined)
4.58

###

Here the recorded log10 GI50 is given for each entry.
tested on: HCT-116; assay: Cytotoxicity against human HCT116 cells after 5 days by SRB assay; assay type: functional; settings: HCT-116, 120 h
Field: value | Transform: log10 | Quantity: GI50 | Unit: µM

Solved entries:
INSERT INTO assay_data (compound, result_type, reported) VALUES
  ('C[C@H](NP(=O)(OC[C@H]1O[C@@H](n2ccc3c(-c4cccs4)ncnc32)[C@H](O)[C@@H]1O)Oc1ccccc1)C(=O)OCc1ccccc1 (stereo partly drawn)', 'log10 GI50', -0.17),
  ('CCOC(=O)[C@H](C)NP(=O)(OC[C@H]1O[C@@H](n2ccc3c(-c4ccco4)ncnc32)[C@H](O)[C@@H]1O)Oc1ccccc1 (stereo partly drawn)', 'log10 GI50', 0.40),
  ('C[C@H](NP(=O)(OC[C@H]1O[C@@H](n2ccc3c(-c4ccco4)ncnc32)[C@H](O)[C@@H]1O)Oc1ccccc1)C(=O)OCc1ccccc1 (stereo partly drawn)', 'log10 GI50', 0.03),
  ('C[C@H](NP(=O)(OC[C@H]1O[C@@H](n2ccc3c(-c4ccsc4)ncnc32)[C@H](O)[C@@H]1O)Oc1ccccc1)C(=O)OCc1ccccc1 (stereo partly drawn)', 'log10 GI50', 0.88),
  ('COC(=O)[C@H](C)NP(=O)(OC[C@H]1O[C@@H](n2ccc3c(-c4cccs4)ncnc32)[C@H](O)[C@@H]1O)Oc1ccccc1 (stereo partly drawn)', 'log10 GI50', 0.79),
  ('CCOC(=O)[C@H](C)NP(=O)(OC[C@H]1O[C@@H](n2ccc3c(-c4ccoc4)ncnc32)[C@H](O)[C@@H]1O)Oc1ccccc1 (stereo partly drawn)', 'log10 GI50', 0.96);

Give the reported value of log10 GI50 for this record: COC(=O)[C@H](C)NP(=O)(OC[C@H]1O[C@@H](n2ccc3c(-c4ccco4)ncnc32)[C@H](O)[C@@H]1O)Oc1ccccc1 (stereo partly drawn)
0.01
